All figures here come from patent EP4603105A1.

- system name: GDP-bound KRAS wild-type protein (Homo sapiens)
- measurement description: Binding to KRAS by surface plasmon resonance (SPR), dissociation constant KD
- cond: 1:1 binding model
Answer each item with its documented pKd.
Give bare numbers, as −log10 of the molar value.

Solved entries (count: 5):
{"columns": ["compound structure string", "pKd"],
 "data": [
  ["CCO[C@H](C)[C@@H]1NC(=O)[C@H](CC(C)C)N(C)C(=O)C[C@@H](C(=O)N(C)C)N(C)C(=O)[C@H](C2CCCC2)N(C)C(=O)C2(CC(C)(C)C2)NC(=O)[C@@H]2C[C@H](C)CN2C(=O)[C@H](CCc2ccc(C(F)(F)F)c(OC)c2)NC(=O)CN(C)C(=O)[C@H](Cc2ccc(C)cc2)N2CC/C=C\\C[C@@H](C2=O)N(C)C(=O)[C@@H]2CCCN2C1=O", 9.01],
  ["CCC(CC)[C@H]1C(=O)N(C)[C@H](C(=O)N(C)C)CC(=O)N(C)[C@@H](COC)C(=O)N[C@@H]([C@@H](C)CC)C(=O)N(C)CC(=O)N(C)[C@H]2C/C=C\\CCN(C2=O)[C@@H](CC2CCC(F)(F)CC2)C(=O)N(C)CC(=O)N[C@@H](CCc2ccc(C(F)(F)F)c(OC)c2)C(=O)N2C[C@@H](C)C[C@H]2C(=O)NC2(CC(C)(C)C2)C(=O)N1C", 9.01],
  ["CCC(CC)[C@H]1C(=O)N(C)[C@H](C(=O)N(C)C)CC(=O)N(C)[C@@H](COC)C(=O)N[C@@H]([C@@H](C)CC)C(=O)N(C)CC(=O)N(C)[C@H]2C/C=C\\CCN(C2=O)[C@@H](Cc2ccc(C(F)(F)F)cc2)C(=O)N(C)CC(=O)N[C@@H](CCc2ccc(Cl)c(Cl)c2)C(=O)N2C[C@H](OC3CCC3)C[C@H]2C(=O)NC2(CC(C)(C)C2)C(=O)N1C", 9.36],
  ["CCO[C@@H]1C[C@H]2C(=O)NC3(CC(C)(C)C3)C(=O)N(C)[C@@H](C3CCCC3)C(=O)N(C)[C@H](C(=O)N(C)C)CC(=O)N(C)[C@@H]([C@@H](C)OC)C(=O)N[C@@H]([C@@H](C)CC)C(=O)N(C)CC(=O)N(C)[C@H]3C/C=C\\CCN(C3=O)[C@@H](Cc3ccc(C)cc3)C(=O)N(C)CC(=O)N[C@@H](CCc3cc(F)c(C(F)(F)F)c(F)c3)C(=O)N2C1", 10.12],
  ["CCO[C@@H]1C[C@H]2C(=O)NC3(CC(C)(C)C3)C(=O)N(C)[C@@H](C3CCCC3)C(=O)N(C)[C@H](C(=O)N(C)C)CC(=O)N(C)[C@@H]([C@H](C)OC)C(=O)N[C@@H]([C@@H](C)CC)C(=O)N3CCC[C@H]3C(=O)N(C)[C@H]3C/C=C\\CCN(C3=O)[C@@H](Cc3ccc(C(F)(F)F)cc3)C(=O)N(C)CC(=O)N[C@@H](CCc3cc(F)c(C(F)(F)F)c(F)c3)C(=O)N2C1", 9.02]
]}

Now consider the entry below.
Input: Read off the recorded pKd for CCO[C@@H]1C[C@H]2C(=O)NC3(CC(C)(C)C3)C(=O)N(C)[C@@H](C3CCCC3)C(=O)N(C)[C@H](C(=O)N(C)C)CC(=O)N(C)[C@@H]([C@@H](C)OC)C(=O)N[C@@H]([C@@H](C)CC)C(=O)N(C3CC3)CC(=O)N(C)[C@H]3C/C=C\CCN(C3=O)[C@@H](Cc3ccc(C(F)(F)F)cc3)C(=O)N(C)CC(=O)N[C@@H](CCc3ccc(C(F)(F)F)c(OC)c3)C(=O)N2C1
Output: 9.68

----------
- system name: GDP-bound KRAS wild-type protein (Homo sapiens, UniProt P01116)
- Sequence (P01116 1-188 isoform P01116-2): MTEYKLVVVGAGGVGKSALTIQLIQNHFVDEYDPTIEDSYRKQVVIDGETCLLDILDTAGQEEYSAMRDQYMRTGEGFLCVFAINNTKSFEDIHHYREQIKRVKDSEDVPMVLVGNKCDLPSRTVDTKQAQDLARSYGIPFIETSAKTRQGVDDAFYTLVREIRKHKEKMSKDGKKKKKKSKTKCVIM
- measurement description: Binding to KRAS by surface plasmon resonance (SPR), dissociation constant KD
- cond: Single Cycle Kinetics
Answer each item with its documented Kd.
Numbers only, in nM.

Solved entries (count: 2):
{"columns": ["compound", "system name", "Kd [nM]"],
 "data": [
  ["CCC[C@H]1C(=O)N[C@@H]([C@@H](C)CC)C(=O)N(C2CC2)CC(=O)N(C)[C@H]2C/C(F)=C\\CCN(C2=O)[C@@H](Cc2ccc(C)cc2)C(=O)N(C)CC(=O)N[C@@H](CCc2ccc(C(F)(F)F)c(OC)c2)C(=O)N2C[C@H](OCC)C[C@H]2C(=O)N(C)C2(CCC2)C(=O)N(C)[C@@H](C2CCCC2)C(=O)N(C)[C@H](C(=O)N(C)C)CC(=O)N1C [PP3525]", "GDP-bound KRAS wild-type protein (Homo sapiens, UniProt P01116)", 0.22],
  ["CCC[C@H]1C(=O)N[C@@H]([C@@H](C)CC)C(=O)N2CCC[C@H]2C(=O)N(C)[C@H]2C/C=C\\CCN(C2=O)[C@@H](Cc2ccc(C)cc2)C(=O)N(C)CC(=O)N[C@@H](CCc2ccc(C(F)(F)F)c(Cl)c2)C(=O)N2CC[C@H](OC)[C@H]2C(=O)N(C)C2(CCC2)C(=O)N(C)[C@@H](C2CCCC2)C(=O)N(C)[C@H](C(=O)N(C)C)CC(=O)N1C [PP3235]", "GDP-bound KRAS wild-type protein (Homo sapiens, UniProt P01116)", 0.21]
]}

Now consider the entry below.
Input: Read off the recorded Kd for CCO[C@@H]1CCN2C(=O)[C@H](CCc3cc(F)c(C(F)(F)F)c(F)c3)NC(=O)CN(C)C(=O)[C@H](Cc3ccc(C(F)(F)F)cc3)N3CCCCC[C@@H](C3=O)N(C)C(=O)CN(C)C(=O)[C@H]([C@@H](C)CC)NC(=O)[C@H](CC(C)C)N(C)C(=O)C[C@@H](C(=O)N3CCOCC3)N(C)C(=O)[C@H](C3CCCC3)N(C)C(=O)C3(CCC3)NC(=O)[C@H]12 [PP1082]
Output: 3.5

----------
- Test system: human lung cancer strain NCI-H441
- Type: cell-based
Answer each item with its documented pIC50.
One number for each entry, as −log10 of the molar value.

{"columns": ["compound", "pIC50"],
 "data": [
  ["CC[C@H](C)[C@@H]1NC(=O)[C@H](CC)N(C)C(=O)C[C@@H](C(=O)N(C)C)N(C)C(=O)[C@H](C2CCCC2)N(C)C(=O)C2(CCC2)N(C)C(=O)[C@@H]2CCCN2C(=O)[C@H](CCc2cc(F)c(C(F)(F)F)c(F)c2)NC(=O)CN(C)C(=O)[C@H](Cc2ccc(C)cc2)N2CC/C=C\\C[C@@H](C2=O)N(C)C(=O)[C@@H]2CCCN2C1=O [PP1786]", 7.94]
]}

Each compound below has a reported value. Please supply its pIC50.
1. CCO[C@@H]1C[C@H]2C(=O)NC3(CC(C)(C)C3)C(=O)N(C)[C@@H](C(CC)CC)C(=O)N3CCC[C@@H]3CC(=O)N(C)[C@@H](CC3CC3)C(=O)N[C@@H]([C@@H](C)CC)C(=O)N(C)CC(=O)N(C)[C@H]3C/C=C\CCN(C3=O)[C@@H](Cc3ccc(C(F)(F)F)cc3)C(=O)N(C)CC(=O)N[C@@H](CCc3cc(F)c(C(F)(F)F)c(F)c3)C(=O)N2C1 [PP1610]
2. CCC[C@@H]1C[C@H]2C(=O)NC3(CCC3)C(=O)N(C)[C@@H](C3CCCC3)C(=O)N(C)[C@H](C(=O)N(C)C)CC(=O)N(C)[C@@H](CC)C(=O)N[C@@H]([C@@H](C)CC)C(=O)N(C)CC(=O)N(C)[C@H]3C/C=C\CCN(C3=O)[C@@H](Cc3ccc(C)cc3)C(=O)N(C)CC(=O)N[C@@H](CCc3cc(F)c(C(F)(F)F)c(F)c3)C(=O)N2C1 [PP2233]

Output:
1: 7.06; 2: 7.56

----------
- Test system: human lung cancer strain NCI-H441
- Type: cell-based
Answer each item with its documented pIC50.
Answers are plain numbers, as −log10 of the molar value.

{"columns": ["compound structure string", "system name", "pIC50"],
 "data": [
  ["CCC[C@H]1C(=O)N[C@@H](C2CCCCC2)C(=O)N(C)CC(=O)N(C)[C@H]2C/C=C\\CCN(C2=O)[C@@H](Cc2ccc(C(F)(F)F)cc2)C(=O)N(C)CC(=O)N[C@@H](CCc2ccc(C(F)(F)F)c(Cl)c2)C(=O)N2C[C@H](OCC)C[C@H]2C(=O)NC2(CC(C)(C)C2)C(=O)N(C)[C@@H]([C@@H](C)CC)C(=O)N(C)[C@H](C(=O)N(C)C)CC(=O)N1C", "human lung cancer strain NCI-H441", 6.99]
]}

Now consider the entry below.
Input: With human lung cancer strain NCI-H441 as the test system, provide measured pIC50 for this compound: CCC[C@H]1C(=O)N[C@@H]([C@@H](C)CC)C(=O)N(C2CC2)CC(=O)N(C)[C@H]2C/C=C\CCN(C2=O)[C@@H](Cc2ccc(C)cc2)C(=O)N(C)CC(=O)N[C@@H](CCc2ccc(C(F)(F)F)c(CC)c2)C(=O)N2C[C@H](OCC)C[C@H]2C(=O)NC2(CC(C)(C)C2)C(=O)N(C)[C@@H](C2CCCC2)C(=O)N(C)[C@H](C(=O)N(C)C)CC(=O)N1C
Output: 7.94
